Quick reference: CCR2 % Antagonism of the listed items.
Molecular target: CCR2 (Homo sapiens (Human), UniProt P41597)
Sequence (P41597 whole entry, species assumed): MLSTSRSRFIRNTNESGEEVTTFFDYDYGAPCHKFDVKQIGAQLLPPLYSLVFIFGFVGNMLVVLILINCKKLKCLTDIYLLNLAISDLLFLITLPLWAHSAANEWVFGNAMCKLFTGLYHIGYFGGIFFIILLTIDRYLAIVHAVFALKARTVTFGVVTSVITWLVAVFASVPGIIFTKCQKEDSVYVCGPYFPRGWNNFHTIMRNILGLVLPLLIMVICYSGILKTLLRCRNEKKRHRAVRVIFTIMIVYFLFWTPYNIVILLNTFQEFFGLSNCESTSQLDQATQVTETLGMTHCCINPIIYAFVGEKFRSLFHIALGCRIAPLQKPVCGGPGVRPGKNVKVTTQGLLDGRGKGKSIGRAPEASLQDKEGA
Experiment: Calcium activity on FLIPR Tetra in HEK-Gqi5 cells stably expressing CCR2
Assay type: cell-based
Details: FLIPR Tetra calcium assay
Kindly format the answer as number then unit.

Example entries and their recorded answers appear below.
>  <querySmiles>
O=S(=O)(Nc1cc(Cl)c(Cl)cc1NS(=O)(=O)c1cccs1)c1cccc(Cl)c1

>  <endpointName>
CCR2 % Antagonism

>  <measuredResult>
90%

$$$$
>  <querySmiles>
O=S(=O)(Nc1cc(Cl)c(Cl)cc1NS(=O)(=O)c1cccs1)c1ccc(F)c(C(F)(F)F)c1

>  <endpointName>
CCR2 % Antagonism

>  <measuredResult>
89%

$$$$
>  <querySmiles>
O=S(=O)(Nc1cc(Cl)c(Cl)cc1NS(=O)(=O)c1cccs1)c1cc2ccccc2o1

>  <endpointName>
CCR2 % Antagonism

>  <measuredResult>
100%

$$$$
>  <querySmiles>
O=S(=O)(Nc1cc(Cl)c(Cl)cc1NS(=O)(=O)c1ccc(Cl)cc1F)c1cccs1

>  <endpointName>
CCR2 % Antagonism

>  <measuredResult>
94%

$$$$
>  <querySmiles>
O=S(=O)(Nc1ccc(Cl)cc1NS(=O)(=O)c1cccs1)c1cc2ccccc2o1

>  <endpointName>
CCR2 % Antagonism

>  <measuredResult>
90%

$$$$
>  <querySmiles>
O=S(=O)(Nc1cc(Cl)c(Cl)cc1NS(=O)(=O)c1cc2ccccc2s1)c1cccs1

>  <endpointName>
CCR2 % Antagonism

>  <measuredResult>
94%

$$$$
>  <querySmiles>
O=S(=O)(Nc1cc(Cl)c(Cl)cc1NS(=O)(=O)c1cccs1)c1ccc(Cl)nc1

>  <endpointName>
CCR2 % Antagonism

>  <measuredResult>
100%

$$$$
>  <querySmiles>
Cc1ccc(S(=O)(=O)Nc2cc(Cl)c(Cl)cc2NS(=O)(=O)c2cccs2)o1

>  <endpointName>
CCR2 % Antagonism

>  <measuredResult>
95%

$$$$
>  <querySmiles>
COC(=O)c1sccc1S(=O)(=O)Nc1ccc(Cl)cc1NS(=O)(=O)c1cc2ccccc2o1

>  <endpointName>
CCR2 % Antagonism

>  <measuredResult>
96%

$$$$
>  <querySmiles>
O=S(=O)(Nc1cc(Cl)c(Cl)cc1NS(=O)(=O)c1cccs1)c1ccc(Cl)c(Cl)c1

>  <endpointName>
CCR2 % Antagonism

>  <measuredResult>
79%

$$$$

Dear colleague, please send me the reported CCR2 % Antagonism for O=S(=O)(Nc1cc(Cl)c(Cl)cc1NS(=O)(=O)c1cc(Cl)cc(Cl)c1O)c1cccs1 when you can.
82%

Quick one: give measured CCR2 % Antagonism for Cn1cnc(S(=O)(=O)Nc2ccc(Cl)cc2NS(=O)(=O)c2cc3ccccc3o2)c1
110%

Report CCR2 % Antagonism, nothing else, for this compound: Cc1cc(S(=O)(=O)Nc2cc(Cl)c(Cl)cc2NS(=O)(=O)c2cccs2)ccc1Br
91%

Item O=S(=O)(Nc1cc(Cl)ccc1NS(=O)(=O)c1cccs1)c1cc2ccccc2o1 : provide CCR2 % Antagonism
86%
